// provenance: paper PMC9482650

- tested target: T1, GRIP1_5, Q9Y3R0
- T1 sequence (Q9Y3R0 568-668, limits assumed, looked up): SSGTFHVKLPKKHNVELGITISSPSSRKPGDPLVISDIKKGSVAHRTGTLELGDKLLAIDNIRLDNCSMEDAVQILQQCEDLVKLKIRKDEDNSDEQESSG
- test summary: holdup assay
- Design: key: below the threshold = too weak to quantify, mostly under pKd 3.1 to 4
- condition notes: plain residues with an end cap or a label only (N-terminal biotin on a linker: ado-ado)
measured attribute: pKd

Solved entries:
TPPAAKKSRI [BAZ1A, Q9NRL2] ... below the threshold
NLSIEKETKL [ASNSD1, Q9NWL6] ... below the threshold
QSPANIYYKV [EFNB1, P52799] ... below the threshold
LRSPRTPSEV [OR10G3, Q8NGC4] ... below the threshold
SSALYGESDL [ACTN2, P35609] ... below the threshold
LKVPPEERLI [CRB2, Q5IJ48] ... below the threshold
CLREWCDAFL [BANF1, O75531] ... below the threshold
GQEEQVTTRL [TRPC5, Q9UL62] ... below the threshold

Can you give me pKd for all of these, one by one?
1. YNNCLEILRV [DCAF7, P61962]
2. EKKTLIGIKL [GOT1L1, Q8NHS2]
3. PEYLGLDVPV [ERBB2, P04626]
4. SAAKVLTSMC [GHRHR, Q02643]
5. ETQVTAETVI [TMEM225B, P0DP42]
6. SKENVQETQI [LRRC4B, Q9NT99]

**Result**
1. below the threshold
2. below the threshold
3. below the threshold
4. below the threshold
5. below the threshold
6. below the threshold

Hi! Can you tell me pKd for each of these binders?
1. QKNRKAQEDL [CES3, Q6UWW8]
2. TLPRKRMSSI [GPRC6A, Q5T6X5]
3. LPHGHSTTRV [NLGN4X, Q8N0W4]
4. LSEFKAMDSI [CTNNA1, P35221]
5. EALLQMESVA [CAVIN3, Q969G5]

**Result**
1. below the threshold
2. below the threshold
3. below the threshold
4. below the threshold
5. below the threshold
